biological target: T1, SARS-CoV-2-N protein (SARS-CoV-2, UniProt P0DTC9 1-419); assay: ELISA, IgG1 on recombinant N protein
T1 construct: also called nucleocapsid protein of SARS-CoV-2
endpoint label: EC50
Please state the value followed by its unit.

Query string: Suppose we examine the binder antibody #21 (antibody, V domains shown, also called D21) VH: EVQLVESGGGLVQPGGSLRLSCAASGFTINNGSIHWVRQAPGKGLEWVAWIWPFGGYTYYADSVKGRFTISADTSKNTAYLQMNSLRAEDTAVYYCARGSYGYDYWGQGTLVTVSS VL: DIQMTQSPSSLSASVGDRVTITCRASQDVGSNVAWYQQKPGKAPKLLIFSAPFLYSGVPSRFSGSGSGTDFTLTISSLQPEDFATYYCQQFYDWPLTFGQGTKVEIKR ; what EC50 value has been reported?
Result string: 0.018 µg/mL

Query string: Suppose we examine the binder antibody #48 (antibody, V domains shown, also called C48) VH: EVQLVESGGGLVQPGGSLRLSCAASGFTISNFGIHWVRQAPGKGLEWVAGIWPYGGYTFYADSVKGRFTISADTSKNTAYLQMNSLRAEDTAVYYCARFDSYSYSGYMDYWGQGTLVTVSS VL: DIQMTQSPSSLSASVGDRVTITCSGSSSNIGDNNVYWYQQKPGKAPKLLIFGPAYLYSGVPSRFSGSGSGTDFTLTISSLQPEDFATYYCAAGYSDNNGITFGQGTKVEIKR ; what EC50 value has been reported?
Result string: 0.0467 µg/mL

Query string: Suppose we examine the binder antibody #7 (antibody, V domains shown, also called C07) VH: EVQLVESGGGLVQPGGSLRLSCAASGFTIEDRWIHWVRQAPGKGLEWVASIWPMEGLTRYADSVKGRFTISADTSKNTAYLQMNSLRAEDTAVYYCARGYYGFDYWGQGTLVTVSS VL: DIQMTQSPSSLSASVGDRVTITCRASQDVEARVAWYQQKPGKAPKLLIFTSTRLYSGVPSRFSGSGSGTDFTLTISSLQPEDFATYYCQQIMPLPTTFGQGTKVEIKR ; what EC50 value has been reported?
Result string: 0.0037 µg/mL
